Property: pIC50; scope: individual molecules
Target: purified recombinant human TG2 (tissue transglutaminase) (Homo sapiens, UniProt P21980)
Sequence (P21980 whole entry): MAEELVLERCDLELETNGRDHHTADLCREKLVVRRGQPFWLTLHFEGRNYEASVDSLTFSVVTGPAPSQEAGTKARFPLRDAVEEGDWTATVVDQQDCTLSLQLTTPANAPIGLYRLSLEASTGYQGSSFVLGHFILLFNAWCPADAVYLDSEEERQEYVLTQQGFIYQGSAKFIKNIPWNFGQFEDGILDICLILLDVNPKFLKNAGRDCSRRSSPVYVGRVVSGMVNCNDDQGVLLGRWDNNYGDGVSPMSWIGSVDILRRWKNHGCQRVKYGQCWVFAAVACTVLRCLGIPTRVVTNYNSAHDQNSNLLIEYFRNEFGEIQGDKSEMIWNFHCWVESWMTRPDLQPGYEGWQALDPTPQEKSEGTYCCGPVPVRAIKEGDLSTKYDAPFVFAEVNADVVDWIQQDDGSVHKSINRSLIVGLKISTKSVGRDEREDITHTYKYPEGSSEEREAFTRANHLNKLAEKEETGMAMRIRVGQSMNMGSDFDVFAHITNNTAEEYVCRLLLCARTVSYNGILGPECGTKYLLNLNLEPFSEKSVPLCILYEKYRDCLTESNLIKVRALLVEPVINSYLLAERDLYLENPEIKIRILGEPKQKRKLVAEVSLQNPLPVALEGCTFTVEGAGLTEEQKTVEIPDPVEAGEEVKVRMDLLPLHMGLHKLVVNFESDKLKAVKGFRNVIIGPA
Assay: TG2 transamidation activity, biotin X-cadaverine incorporation into N,N′-dimethylcasein (Example 2)
Conditions: recombinant human TG2 400 ng/ml, 2 h at 37° C.
pIC50: −log10 of the molar value.
test.readout: pIC50

C=CC(=O)NCC(=O)N1CCN(S(=O)(=O)c2cccc3c(N(C)C)cccc23)CC1 | 8.21
CN(C)c1cccc2c(S(=O)(=O)N3CCN(C(=O)CNC(=O)CCl)CC3)cccc12 | 8.23
CC(C)(C)OC(=O)N1CCN(C(=O)CNC(=O)CBr)CC1 | 8.10
O=C(CBr)NCC(=O)N1CCN(C(=O)OCCC23CC4CC(CC(C4)C2)C3)CC1 | 8.20
C[C@H](NC(=O)CBr)C(=O)N1CCN(C(=O)OCc2ccccc2)CC1 | 7.32
O=C(CBr)NCC(=O)N1CCN(C(=O)OCc2ccccc2)CC1 | 6.12
Cc1c(C)[n+](C)c(SCC(=O)NCC(=O)N2CCN(C(=O)OC(C)(C)C)CC2)n1C | 3.40
C[S+](C)CC(=O)NCC(=O)N1CCN(C(=O)OC(C)(C)C)CC1 | 7.15
C[C@@H](NC(=O)CBr)C(=O)N1CCN(C(=O)OCc2ccccc2)CC1 | 7.18
CC(=O)NCC(=O)N1CCN(C(=O)OCc2ccccc2)CC1 | 5.37

====

Measured pIC50 accompanies every entry in the list below.
Target: purified recombinant human FXIIIa (Homo sapiens, UniProt P00488)
Sequence (P00488 39-732 limits assumed): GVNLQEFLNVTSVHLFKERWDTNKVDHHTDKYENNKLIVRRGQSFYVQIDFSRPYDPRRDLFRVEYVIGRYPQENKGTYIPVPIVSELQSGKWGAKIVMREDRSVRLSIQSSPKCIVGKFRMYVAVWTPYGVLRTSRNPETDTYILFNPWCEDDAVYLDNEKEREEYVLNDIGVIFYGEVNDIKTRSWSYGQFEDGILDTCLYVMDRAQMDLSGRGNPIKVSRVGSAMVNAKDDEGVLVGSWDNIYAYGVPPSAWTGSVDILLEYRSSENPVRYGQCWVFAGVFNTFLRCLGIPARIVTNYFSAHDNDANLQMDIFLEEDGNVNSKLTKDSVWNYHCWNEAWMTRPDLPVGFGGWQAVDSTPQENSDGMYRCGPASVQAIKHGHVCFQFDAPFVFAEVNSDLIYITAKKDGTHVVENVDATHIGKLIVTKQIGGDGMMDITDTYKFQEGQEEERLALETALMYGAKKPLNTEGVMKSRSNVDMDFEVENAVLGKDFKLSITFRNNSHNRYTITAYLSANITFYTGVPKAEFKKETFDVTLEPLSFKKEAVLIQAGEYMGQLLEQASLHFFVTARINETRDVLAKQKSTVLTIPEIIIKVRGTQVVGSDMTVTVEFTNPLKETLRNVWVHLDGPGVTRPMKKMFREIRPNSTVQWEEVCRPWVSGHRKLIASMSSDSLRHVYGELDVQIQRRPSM
Test: Selectivity assay, FXIIIa, biotin X-cadaverine incorporation into N,N′-dimethylcasein (Example 4)
Conditions: recombinant human FXIIIa 2 μg/ml, thrombin preactivated, 1 h at 37° C.; errors are SD; read-out: FACTOR XIII IC50
pIC50: −log10 of the molar value.
test.readout: pIC50

C[S+](C)CC(=O)N[C@@H](Cc1ccccc1)C(=O)N1CCN(C(=O)OCc2ccccc2)CC1 [EB 1-126] | 4.81
C[S+](C)CC(=O)N[C@H](Cc1ccccc1)C(=O)N1CCN(C(=O)OCc2ccccc2)CC1 [EB 1-127] | 4.63
C=CC(=O)N[C@H](Cc1ccccc1)C(=O)N1CCN(C(=O)OCc2ccccc2)CC1 [EB 1-131] | 4.87

====

pIC50: −log10 of the molar value.
Consider the following pIC50 values measured on transglutaminase 1 (Homo sapiens, UniProt P22735).
Sequence (P22735 whole entry, species assumed): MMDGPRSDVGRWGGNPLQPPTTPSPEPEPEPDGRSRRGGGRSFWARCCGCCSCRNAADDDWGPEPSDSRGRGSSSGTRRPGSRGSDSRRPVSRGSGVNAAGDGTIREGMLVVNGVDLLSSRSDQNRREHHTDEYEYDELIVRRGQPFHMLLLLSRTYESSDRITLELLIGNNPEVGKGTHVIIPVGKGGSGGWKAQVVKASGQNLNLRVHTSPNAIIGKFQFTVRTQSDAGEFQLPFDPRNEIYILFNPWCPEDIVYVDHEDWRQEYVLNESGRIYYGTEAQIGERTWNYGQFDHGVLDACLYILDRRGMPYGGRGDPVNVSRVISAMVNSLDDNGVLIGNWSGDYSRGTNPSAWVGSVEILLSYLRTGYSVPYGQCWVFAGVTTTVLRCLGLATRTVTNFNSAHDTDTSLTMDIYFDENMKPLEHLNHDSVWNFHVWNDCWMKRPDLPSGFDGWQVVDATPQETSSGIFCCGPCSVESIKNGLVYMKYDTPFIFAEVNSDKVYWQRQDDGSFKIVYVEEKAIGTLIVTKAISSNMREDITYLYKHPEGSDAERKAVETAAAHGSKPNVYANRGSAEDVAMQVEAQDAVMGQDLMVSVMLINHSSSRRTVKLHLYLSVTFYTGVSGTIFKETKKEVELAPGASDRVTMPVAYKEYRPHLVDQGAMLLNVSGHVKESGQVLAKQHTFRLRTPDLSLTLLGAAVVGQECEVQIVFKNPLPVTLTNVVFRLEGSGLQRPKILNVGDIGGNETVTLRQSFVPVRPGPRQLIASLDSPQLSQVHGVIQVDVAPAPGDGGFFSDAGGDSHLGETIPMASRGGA
test.readout: pIC50

O=C(CBr)NCC(=O)N1CCN(C(=O)OCC23CC4CC(CC(C4)C2)C3)CC1 | 5.70
C=CC(=O)NCC(=O)N1CCN(S(=O)(=O)c2cccc3c(N(C)C)cccc23)CC1 | 5.30
C=CC(=O)NCC(=O)N1CCN(C(=O)C23CC4CC(CC(C4)C2)C3)CC1 | 5.70

====

pIC50: −log10 of the molar value.
// endpoint pIC50 / system Factor X111a (Homo sapiens)
test.readout: pIC50

C=CC(=O)NCC(=O)N1CCN(C(=O)OCc2ccc3cc(C(=O)OC)ccc3c2)CC1 | < 4.00
C=CC(=O)NCC(=O)N1CCN(C(=O)C23CC4CC(CC(C4)C2)C3)CC1 | 4.52
C[S+](C)CC(=O)NCC(=O)N1CCN(C(=O)OCc2ccc3ccccc3c2)CC1 | < 4.00
COC(=O)c1ccc2cc(COC(=O)N3CCN(C(=O)CNC(=O)CBr)CC3)ccc2c1 | > 4.00
C[S+](C)CC(=O)NCC(=O)N1CCN(C(=O)OCc2ccccc2)CC1 | < 4.00
C[S+](C)CC(=O)NCC(=O)N1CCN(C(=O)OC(C)(C)C)CC1 | < 4.00
C=CC(=O)NCC(=O)N1CCN(S(=O)(=O)c2cccc3c(N(C)C)cccc23)CC1 | < 4.00
O=C(CBr)NCC(=O)N1CCN(C(=O)OCCC23CC4CC(CC(C4)C2)C3)CC1 | < 4.00
O=C(CBr)NCC(=O)N1CCN(C(=O)C23CC4CC(CC(C4)C2)C3)CC1 | > 4.00
CC[S+](CC)CC(=O)NCC(=O)N1CCN(S(=O)(=O)c2cccc3c(N(C)C)cccc23)CC1 | < 4.00
